# assay.summary: qHTS assay for MDR1-selective chemotherapeutics: Primary screen using the drug-selected MDR subline cells KB-V1; note: nearly all actives have a fitted effect of over 60% in size
# details: KB-V1 MDR cells viability, CellTiter-Glo, 72 h; series mostly up to 46.1 µM
Among all 400,000 compounds or so, about 13,000 (3.2%) were called active. Not shown: some 18% with an inconclusive outcome. Calls come from the whole dose curve; as a rule, active = well fitted cell-killing curve with a large enough effect; inconclusive = small, poorly fitted or top-dose-only effect, or effect the other way; inactive = flat fitted curve, though single readings scatter. This excerpt belongs to a sample that is enriched for actives.
Mark one answer only. Choices: label 1 = active, label 0 = inactive

Short answer needed: outcome of this test for Cc1ccc(-c2nc3ccccc3[nH]2)cc1N ?
label 1

Short answer needed: outcome of this test for CCOC(=O)CSC1=Nc2ccccc2C2=NC(CCC(=O)NCc3ccc(F)cc3)C(=O)N12 (configuration not stated) ?
label 0

Short answer needed: outcome of this test for CNC(=S)NNC(=O)c1ccc(N(C)C)cc1 ?
label 1

Short answer needed: outcome of this test for CC(C)COP(=O)(c1ccc(N(C)C)cc1)C(Nc1ccccc1)c1cccnc1 (configuration not stated) ?
label 1

Short answer needed: outcome of this test for COc1cc(Br)cc2cc(S(=O)(=O)c3ccccc3)c(=O)oc12 ?
label 0

Short answer needed: outcome of this test for CC(=O)NC(=S)NNC(=O)c1ccc(Br)cc1 ?
label 0

Short answer needed: outcome of this test for Cc1cc(Cl)ccc1OCCCC(=O)NCc1ccncc1 ?
label 1

Short answer needed: outcome of this test for CN1OC[C@@H]2CN(C(=O)C(C)(C)C)[C@H](c3ccc(-n4ccnc4)cc3)C[C@@H]21 ?
label 0

Short answer needed: outcome of this test for Cc1cc(Cl)ccc1OCCCC(=O)Nc1cccc(-n2cnnn2)c1 ?
label 0

Short answer needed: outcome of this test for CCCCN1CC(N2CCN(Cc3cccc(C)c3)CC2)CS1(=O)=O (configuration not stated) ?
label 0

Short answer needed: outcome of this test for CNC(=S)NNC(=O)c1sccc1OCc1ccccc1 ?
label 0

Short answer needed: outcome of this test for O=S(=O)(NCc1ccc(Cl)cc1Cl)c1cccs1 ?
label 0

Short answer needed: outcome of this test for C[C@@H]1CN([C@@H](C)CO)S(=O)(=O)c2ccc(C#Cc3cccc(F)c3)cc2O[C@H]1CN(C)S(=O)(=O)c1cn(C)cn1 ?
label 0

Short answer needed: outcome of this test for OC[C@@H]1CN(Cc2ccc(F)cc2)C[C@H](n2cnc3c(NC4CCCC4)ncnc32)O1 ?
label 0

Short answer needed: outcome of this test for COc1ccc(-c2[nH]nc(-c3ccccc3)c2-c2nc3ccccc3[nH]2)cc1 ?
label 0

Short answer needed: outcome of this test for CC1(C(=O)Nc2cccc3cccnc23)CCN1C(=O)CCC1CCCC1 (configuration not stated) ?
label 0

Short answer needed: outcome of this test for CC(=O)Nc1ccc2c3c(ccc([N+](=O)[O-])c13)CC2 ?
label 0

Short answer needed: outcome of this test for Clc1ccc(-c2cccc3nccn23)cc1 ?
label 0

Short answer needed: outcome of this test for CC(C)c1ccc(NC(=O)CN(C)S(=O)(=O)c2ccc3c(c2)c(=O)n(C)c(=O)n3C)cc1 ?
label 0

Short answer needed: outcome of this test for O=S(=O)(Cc1ccc(Cl)cc1Cl)c1ccc(Cl)cc1 ?
label 1

Short answer needed: outcome of this test for Cc1ccc(C(O)P(=O)(OC(C)C)c2ccc(N(C)C)cc2)cc1 (configuration not stated) ?
label 0

Short answer needed: outcome of this test for CSc1ccc(CNC(=O)C2(C)CCCN2C)cc1 (configuration not stated) ?
label 0

---

# assay.summary: qHTS assay for MDR1-selective chemotherapeutics: Primary screen using the drug-selected MDR subline cells KB-V1; note: nearly all actives have a fitted effect of over 60% in size
# details: KB-V1 MDR cells viability, CellTiter-Glo, 72 h; series mostly up to 46.1 µM
# From the text: A prime difficulty in effectively treating cancer is the development of cellular resistance to multiple structurally unrelated anticancer drugs, a phenomenon known as multidrug resistance (MDR). […] Numerous strategies to overcome P-gp-mediated MDR have been explored, including the design of drugs that evade recognition and efflux, and development of inhibitors to block efflux and restore drug accumulation. […]
Screen size: about 400,000 compounds; about 13,000 (3.2%) were called active. About 18% were inconclusive and are not listed. The call rests on the fitted dose curve; in most records, active means well fitted cell-killing curve with a large enough effect; inconclusive means small, poorly fitted or top-dose-only effect, or effect the other way; inactive means flat fitted curve, though single readings scatter. The list comes from a sample in which actives are over-represented; it also holds close analogues and randomly drawn compounds.
Mark one answer only. Choices: active, inactive

Short answer needed: outcome of this test for O=C(Nc1ccc(C(=O)O)cc1)/C(=C\c1ccccc1)NC(=O)c1ccc(Br)cc1 ?
inactive

Short answer needed: outcome of this test for CCCCCCCCN1C(=O)[C@H](CC(=O)NCc2cccc3ccccc23)C[C@@]2(C(=O)OC)CCCCC=C12 ?
inactive

Short answer needed: outcome of this test for Cc1cc(N2CCN(S(=O)(=O)c3ccc(C)c(C)c3)CC2)c2ccccc2n1 ?
active

Short answer needed: outcome of this test for CCN(CC)C(=O)C1=C(C)N(Cc2ccccc2)C(=O)C(CC(=O)NC(c2ccccc2)c2ccccc2)C1 (configuration not stated) ?
inactive

Short answer needed: outcome of this test for Cc1ccc2nc(CN3CCN(S(=O)(=O)c4ccc(C)c(C)c4)CC3)oc2c1 ?
inactive

Short answer needed: outcome of this test for Cc1ccc(-c2nnc3ccc(SCC(N)=O)nn23)cc1 ?
inactive

Short answer needed: outcome of this test for CCS(=O)(=O)N1Cc2ccccc2CC1C(=O)Nc1nc2ccc(F)cc2s1 (configuration not stated) ?
active

Short answer needed: outcome of this test for Cn1c(=O)c2c(n3c4ccccc4nc13)NC(=O)CC2c1cccc(Cl)c1 (configuration not stated) ?
inactive

Short answer needed: outcome of this test for CCc1ccccc1NC(=O)/C(=C/c1ccccc1)c1ccccc1 ?
inactive

Short answer needed: outcome of this test for O=C(Nc1ccc(-c2nc3ccccc3[nH]2)cc1)c1ccncc1 ?
inactive

Short answer needed: outcome of this test for COc1ccc(-c2c(C)cc3oc(=O)cc(-c4ccccc4)c3c2C)cc1F ?
inactive

Short answer needed: outcome of this test for CCn1c(Cc2ccccc2)nnc1SCC(=O)Nc1ccccc1 ?
active

Short answer needed: outcome of this test for CCn1c(CNC(=O)c2ccc(OC)c(OC)c2)nnc1SCC(=O)Nc1ccccc1 ?
inactive

Short answer needed: outcome of this test for CCc1ccc2oc(-c3ccc(C)c(NC(=O)/C=C/c4ccco4)c3)nc2c1 ?
inactive

Short answer needed: outcome of this test for O=C(O)C(=Cc1ccc([N+](=O)[O-])cc1)CCc1ccccc1 ?
inactive

Short answer needed: outcome of this test for O=C(/C=C/c1ccccc1)N/C(=C/c1ccccc1)C(=O)Nc1ccccc1O ?
active

Short answer needed: outcome of this test for COc1cc2nc(C#Cc3nc4cc(OC)c(OC)cc4[nH]3)[nH]c2cc1OC ?
inactive

Short answer needed: outcome of this test for COc1ccc(NC(=O)C[C@H]2C(=O)N(CCc3ccccc3)C[C@@H]2C)cc1 ?
inactive

Short answer needed: outcome of this test for Nc1nc(N)c(N=O)c(N)n1 ?
inactive

Short answer needed: outcome of this test for CC(=O)Nc1ccc2nc(NC(=O)CS(=O)(=O)c3ccc(F)cc3)sc2c1 ?
inactive

Short answer needed: outcome of this test for CCOC(=O)c1ccc(NC(=O)Cc2cccs2)cc1 ?
inactive

Short answer needed: outcome of this test for CCOc1ccc(NC(=O)c2ccccc2NS(C)(=O)=O)cc1 ?
inactive

---

# assay.summary: qHTS assay for MDR1-selective chemotherapeutics: Primary screen using the drug-selected MDR subline cells KB-V1; note: nearly all actives have a fitted effect of over 60% in size
# details: KB-V1 MDR cells viability, CellTiter-Glo, 72 h; series mostly up to 46.1 µM
Hit rate of the full screen: of about 400,000 compounds, about 13,000 (3.2%) were called active. Roughly 18% stayed inconclusive and do not appear here. Calls follow the shape of the dose curve; as a rule, active = well fitted cell-killing curve with a large enough effect; inconclusive = small, poorly fitted or top-dose-only effect, or effect the other way; inactive = flat fitted curve, though single readings scatter. The list comes from a sample in which actives are over-represented; it also holds close analogues and randomly drawn compounds.
Mark one answer only. Choices: active, inactive

Short answer needed: outcome of this test for O=C(Cn1nc(C(F)(F)F)c2c1CCC2)NCc1ccc(F)cc1 ?
active

Short answer needed: outcome of this test for CC(C)(C)OC(=O)N1CCC(c2c(C(=O)Nc3ccc4c(c3)OCO4)cnn2-c2ccccc2)CC1 ?
inactive

Short answer needed: outcome of this test for CCCCCC(=O)N1C[C@H](O)[C@@H](n2cc(COC(=O)c3ccccc3)nn2)C[C@@H]1c1ccc(C)cc1 ?
inactive

Short answer needed: outcome of this test for CCCCCCNC(=O)O[C@H]1CN(C(=O)OC(C)C)N(C(=O)OC(C)C)[C@@H]2CN(S(=O)(=O)c3ccc(C)cc3)C[C@]12O ?
inactive

Short answer needed: outcome of this test for Nc1cc(=O)n(Cc2ccccc2)c(=O)n1Cc1ccccc1 ?
active

Short answer needed: outcome of this test for CCN(CC(=O)Nc1ccccc1OC)C(=O)CC1CC2CCC1C2 (stereo unspecified) ?
active

Short answer needed: outcome of this test for O=C(c1cc2c(s1)CCC2)N1CCN(c2ccccc2)CC1 ?
active

Short answer needed: outcome of this test for O=C(Cn1nc(C(F)(F)F)c2c1CCCC2)Nc1ccc(Cl)cc1 ?
inactive

Short answer needed: outcome of this test for CCCN(CC(=O)Nc1ccccc1OC)C(=O)CCC(=O)c1ccc(F)cc1 ?
active

Short answer needed: outcome of this test for CCc1cc(C(=O)N(CC)CC(=O)Nc2c(F)cccc2F)sc1C ?
inactive

Short answer needed: outcome of this test for O=C(C1CCC1)N1CCN(c2ccccc2)CC1 ?
inactive

Short answer needed: outcome of this test for CCOc1ccc(-c2nonc2NC(=O)c2oc3ccc(C)cc3c2C)cc1OCC ?
inactive

Short answer needed: outcome of this test for CCOC(=O)c1cc2cc(OC)ccc2n1C1CCN(C)CC1 ?
inactive

Short answer needed: outcome of this test for COc1ccccc1NC(=O)CN(c1ccccc1OC)S(=O)(=O)c1ccccc1 ?
inactive

Short answer needed: outcome of this test for COc1ccc(S(=O)(=O)N2CCOCC2)cc1NC(=O)CC1CC2CCC1C2 (stereo unspecified) ?
inactive

Short answer needed: outcome of this test for O=c1c2ccccc2n(Cc2cccc(Cl)c2)c(=O)n1Cc1ccccc1 ?
inactive

Short answer needed: outcome of this test for Cc1ccc(C(C)C)cc1OCC(=O)Nc1ccccc1N1CCCC1 ?
inactive

Short answer needed: outcome of this test for CCOC(=O)N1CCN(C(=O)CN(c2ccc(C)c(C)c2)S(=O)(=O)c2ccccc2)CC1 ?
active

Short answer needed: outcome of this test for Cc1cc(-c2csc(N)n2)c(C)n1Cc1ccccc1 ?
inactive

Short answer needed: outcome of this test for CCOC(=O)N1CCN(C(=O)c2ccccc2N(Cc2ccccc2)S(=O)(=O)c2ccc(OC)cc2)CC1 ?
active

Short answer needed: outcome of this test for COc1ccccc1/C=C/C(=O)NC1CC2CCC1C2 (stereo unspecified) ?
inactive
